Assign IC50 to each entry below.
# tested on: Sodium channel protein type 4 subunit alpha (Homo sapiens)
# Sequence (P35499 whole entry): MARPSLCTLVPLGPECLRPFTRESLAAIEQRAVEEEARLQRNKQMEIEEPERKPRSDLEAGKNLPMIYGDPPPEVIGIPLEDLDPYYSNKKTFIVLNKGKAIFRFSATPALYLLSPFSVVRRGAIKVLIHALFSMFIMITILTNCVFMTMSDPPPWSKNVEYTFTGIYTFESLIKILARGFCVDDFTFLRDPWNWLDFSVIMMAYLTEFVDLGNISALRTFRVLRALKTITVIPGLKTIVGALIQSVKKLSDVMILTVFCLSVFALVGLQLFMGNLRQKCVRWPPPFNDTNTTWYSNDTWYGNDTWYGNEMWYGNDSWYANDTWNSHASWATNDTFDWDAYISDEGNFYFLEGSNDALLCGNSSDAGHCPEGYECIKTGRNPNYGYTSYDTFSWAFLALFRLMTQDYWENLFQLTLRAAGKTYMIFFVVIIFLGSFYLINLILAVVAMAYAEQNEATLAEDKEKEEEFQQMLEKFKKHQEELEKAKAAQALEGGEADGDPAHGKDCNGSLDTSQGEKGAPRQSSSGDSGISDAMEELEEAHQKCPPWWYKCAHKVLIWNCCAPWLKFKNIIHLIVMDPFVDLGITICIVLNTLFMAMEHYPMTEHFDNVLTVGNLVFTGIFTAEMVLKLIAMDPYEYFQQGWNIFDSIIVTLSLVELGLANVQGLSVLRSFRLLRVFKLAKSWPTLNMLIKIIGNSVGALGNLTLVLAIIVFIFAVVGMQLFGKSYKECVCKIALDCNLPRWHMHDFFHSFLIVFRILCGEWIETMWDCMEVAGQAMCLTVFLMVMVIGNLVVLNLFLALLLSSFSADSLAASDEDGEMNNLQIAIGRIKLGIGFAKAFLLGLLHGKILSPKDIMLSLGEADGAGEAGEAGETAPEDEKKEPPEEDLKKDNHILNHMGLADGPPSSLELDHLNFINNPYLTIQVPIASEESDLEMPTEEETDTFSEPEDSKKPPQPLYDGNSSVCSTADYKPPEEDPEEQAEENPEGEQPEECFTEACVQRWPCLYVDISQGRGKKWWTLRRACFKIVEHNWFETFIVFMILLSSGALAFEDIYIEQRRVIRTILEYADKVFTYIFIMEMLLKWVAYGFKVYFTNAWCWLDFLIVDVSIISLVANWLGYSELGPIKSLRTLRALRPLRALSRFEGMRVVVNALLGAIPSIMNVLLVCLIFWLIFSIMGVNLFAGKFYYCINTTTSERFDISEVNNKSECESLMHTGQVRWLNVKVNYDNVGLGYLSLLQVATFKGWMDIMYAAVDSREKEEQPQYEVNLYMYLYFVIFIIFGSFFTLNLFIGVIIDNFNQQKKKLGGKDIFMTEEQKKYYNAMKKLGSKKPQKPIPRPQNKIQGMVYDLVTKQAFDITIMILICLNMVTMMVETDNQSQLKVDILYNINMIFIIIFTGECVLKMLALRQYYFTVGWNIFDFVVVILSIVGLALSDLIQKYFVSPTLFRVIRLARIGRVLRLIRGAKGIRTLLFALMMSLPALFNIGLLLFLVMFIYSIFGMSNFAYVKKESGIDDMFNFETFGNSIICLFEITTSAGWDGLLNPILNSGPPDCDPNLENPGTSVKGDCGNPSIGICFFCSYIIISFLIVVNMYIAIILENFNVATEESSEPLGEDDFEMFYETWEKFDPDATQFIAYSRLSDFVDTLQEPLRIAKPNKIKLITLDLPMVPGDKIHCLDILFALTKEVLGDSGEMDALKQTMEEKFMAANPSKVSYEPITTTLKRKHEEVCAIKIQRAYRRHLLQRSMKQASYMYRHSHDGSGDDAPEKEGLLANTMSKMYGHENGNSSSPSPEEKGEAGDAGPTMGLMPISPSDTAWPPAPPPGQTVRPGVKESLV
# experimental protocol: Modulation of human Nav1.4 in open-inactivated state assessed as inhibition of inward current after 4 mins by whole-cell electrophysiology

Problem: Given the entry CC(C)(C)OC(=O)n1cc(-c2ccc(NC(=O)[C@@H]3CCCN3)cc2)nc1N , report its measured IC50.
Solution: > 30 µM

Problem: So what's the measured IC50 for this one? Nc1nc(-c2cccc(NC(=O)c3ccc[nH]3)c2)cn1C(=O)c1ccc[nH]1
Solution: > 30 µM

Problem: Recorded IC50 of Nc1nc(-c2cccc(NC(=O)c3cc4ccccc4[nH]3)c2)c[nH]1 , please.
Solution: > 30 µM
